test-system: Coagulation factor XIII A chain (Homo sapiens)
Sequence (P00488 whole entry): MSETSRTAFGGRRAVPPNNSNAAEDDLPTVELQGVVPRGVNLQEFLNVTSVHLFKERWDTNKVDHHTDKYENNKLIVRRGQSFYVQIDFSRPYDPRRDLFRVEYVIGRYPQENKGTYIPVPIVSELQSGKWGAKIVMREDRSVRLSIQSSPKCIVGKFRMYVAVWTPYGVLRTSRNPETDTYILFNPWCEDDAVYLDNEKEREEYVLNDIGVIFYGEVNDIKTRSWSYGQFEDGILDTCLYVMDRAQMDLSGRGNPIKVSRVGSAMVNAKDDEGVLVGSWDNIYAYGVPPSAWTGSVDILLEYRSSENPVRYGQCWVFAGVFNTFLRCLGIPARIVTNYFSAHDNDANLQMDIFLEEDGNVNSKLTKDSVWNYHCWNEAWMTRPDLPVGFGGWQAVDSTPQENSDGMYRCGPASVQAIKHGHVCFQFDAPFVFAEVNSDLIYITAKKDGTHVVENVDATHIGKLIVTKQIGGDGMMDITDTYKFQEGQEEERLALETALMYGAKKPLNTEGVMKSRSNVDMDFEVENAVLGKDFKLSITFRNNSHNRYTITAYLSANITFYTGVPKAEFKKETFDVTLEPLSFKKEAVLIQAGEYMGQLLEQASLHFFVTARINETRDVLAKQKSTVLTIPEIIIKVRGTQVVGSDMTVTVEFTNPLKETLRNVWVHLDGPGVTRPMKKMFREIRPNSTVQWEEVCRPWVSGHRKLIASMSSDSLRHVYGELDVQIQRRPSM
measurement-notes: Inhibition of recombinant human F13a-mediated biotin X-cadaverine incorporation into N,N'-dimethylcasein after 1 hr
assay-metric: IC50 (µM)
Field format: number, assumed µM, no unit text.

{"smiles-structure": "C[S+](C)CC(=O)CC[C@H](NC(=O)[C@H](Cc1ccccc1)NC(=O)OCc1ccccc1)C(=O)O", "test-system": "Coagulation factor XIII A chain (Homo sapiens)", "assay-metric": "IC50", "result": 105}
{"smiles-structure": "CCC[n+]1c(C)c(C)n(C)c1SCC(=O)CC[C@H](NC(=O)CNC(=O)OCc1ccccc1)C(=O)O", "test-system": "Coagulation factor XIII A chain (Homo sapiens)", "assay-metric": "IC50", "result": 30}
{"smiles-structure": "CCn1c(C)c(C)[n+](CC)c1SCC(=O)CC[C@H](NC(=O)[C@H](Cc1ccccc1)NC(=O)OCc1ccccc1)C(=O)O", "test-system": "Coagulation factor XIII A chain (Homo sapiens)", "assay-metric": "IC50", "result": 50}

## Task // query IC50 value for entry Cc1c(C)[n+](C)c(SCC(=O)CC[C@H](NC(=O)[C@H](Cc2ccccc2)NC(=O)OCc2ccccc2)C(=O)O)n1C.[Br-]
## Result 5

## Task And for Cc1c(C)[n+](C)c(SCC(=O)CC[C@H](NC(=O)CNC(=O)OCc2ccccc2)C(=O)O)n1C ?
## Result 2
